Each recorded value in this set is attributed to PubChem BioAssay (NCI).

Test system: TK-10 renal
experimentSummary: NCI-60 one-dose screen, 48 h (100 = growth as untreated, 0 = no growth, -100 = all killed)
measurementParameters: 10 µM unless noted
Method: Growth inhibition of the TK-10 human tumor cell line is measured as a screen for anti-cancer activity. Cells are grown in 96 well plates and exposed to the test compound for 48 hours. Compounds are tested at a single concentration, which is 10^-5 M for most compounds. The reported endpoint is percent growth (GI% or GIPRCNT), where numbers from 0 - 100% represent growth inhibition, and numbers from -100% - 0 represent cell death. For example, a value of 40 represents 60% growth inhibition. […]
This is part of a sample that, as a whole, favours compounds with a hit. Of some 83,000 tested, about 20% had one in any assay.
measuredQuantity: growth (%)

1) Cc1cccc(/C=C/c2ccc(NC(=S)NCCCCN(C)C)cc2)c1	-89.8
2) CC1=C(C)C(=O)C(N2CCSCC2)=CC1=O	130
3) COc1ccc(NC(=O)Nc2nc3ccc([N+](=O)[O-])cc3s2)cc1	29.7
4) COc1ccc(NC(=O)CSc2nnc(-c3ccc(-c4nc5ccc(Cl)cc5[nH]4)cc3)o2)cc1	112
5) CCOC(=O)c1ccc(NC(=S)NC(=O)c2ccc(NC(=O)C(C)C)cc2OC)cc1	85.7
6) O=C(/C=C1\C(=O)N(Cc2ccccc2)c2ccccc21)c1cc2ccccc2oc1=O	84.6
7) CCC(=O)c1cc(C(=O)OC)c2ccc3c4ccccc4ccc3n12	63.9
8) CC1=C(C(=O)Nc2ccccc2)C(c2ccc3ccccc3c2)n2c(nc3ccccc32)N1 (centres undefined)	116
9) O=CNc1ccc(-n2cnc3cc(-c4ccc(O)cc4)ccc32)cc1	108
